tested on: RXRa homodimer (NR concentration 180 nM); test: PBM binding z-score (relative to random genomic background probes); higher = stronger binding; sequences stand for … in GC…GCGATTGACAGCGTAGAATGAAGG
Reported Endpoint: PBM binding z-score

Examples with their reported PBM binding z-score follow.
{"columns": ["Chain", "Measured Value"],
 "data": [
  ["CCTGGGAGGACAACAGGAGGTCAGAGCTGCCAGA", 2.29],
  ["TATACAGGGTCAAAGGCCATAGTACGAATGTCGA", 7.75],
  ["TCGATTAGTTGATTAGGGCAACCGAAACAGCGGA", 0.0192],
  ["GATACAGGGTCCAGGCCAGAGTACGCGTATTGAT", 0.291]
]}

Inquiry: Return reported PBM binding z-score. Input sequence: CCCTACGGGTCACGAGGTTATAGCACGACGAGCG
Reply text: 7.45

Inquiry: Return reported PBM binding z-score. Input sequence: CTTCCAAGGTCAAAGGTCAGTGAAGAGATGACGG
Reply text: 10.4

---

// reported PBM binding z-score per item
test system: FXR:RXRa (NR concentration 270 nM, RXRa partner concentration 90 nM); test: PBM binding z-score (relative to random genomic background probes); higher = stronger binding; sequences stand for … in GC…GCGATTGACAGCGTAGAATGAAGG
I only need the number, thanks.

{"columns": ["Chain", "PBM binding z-score"],
 "data": [
  ["CCTCGGAGGACAACAGGAGGACAGAGCTGCCAGA", 0.107],
  ["ACGGACAGGTGATGAAGGTAACTCAGGCTATCAT", 0.169],
  ["CCGAGTAGGTAATGGGGCATTCAGGCAACGGTGA", -0.324],
  ["TCTTGTAGATCAAAGGTTACGAAAGCCGAAGCCT", 2.01]
]}

Inquiry: Return reported PBM binding z-score. Input sequence: CCTCGGAGGACAGAAGGTCAGAGGTGTCCGCTTT
Reply text: 1.1

---

tested on: PPARg:RXRa 30nM:10nM, anti-RXR (NR concentration 30 nM, RXRa partner concentration 10 nM); experiment: PBM binding z-score (relative to random genomic background probes); higher = stronger binding; sequences stand for … in GC…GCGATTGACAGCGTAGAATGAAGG
Label FALSE if PBM binding z-score falls below 1; label TRUE in every other case.

Example entries begin here.
{"columns": ["Chain", "Class"],
 "data": [
  ["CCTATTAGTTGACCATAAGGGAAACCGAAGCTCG", "FALSE"],
  ["ATATGTAGGTTATCGAGTCATTCAGTTTGCGCAT", "TRUE"],
  ["TAGCCTAGGTCAGATCGGGCCAGTATTCGCTATA", "FALSE"],
  ["CCTAGTTGGTCAGGAGGTCACACAACGGATATGA", "TRUE"],
  ["CCTGCTAGGTCATGGTCAGCTAGTCTACAGTATG", "FALSE"]
]}

Inquiry: // inclusive: PBM binding z-score at least 1? input: CTCGAAAGGTCGGTTGTGGTGAGTATACGGATAA
Reply text: FALSE

Inquiry: // inclusive: PBM binding z-score at least 1? input: TCTGCTAGGTCAACGATGGTCAGATAATCTGCTA
Reply text: TRUE

---

tested on: PPARg:RXRa 30nM:10nM, anti-RXR (NR concentration 30 nM, RXRa partner concentration 10 nM); test: PBM binding z-score (relative to random genomic background probes); higher = stronger binding; sequences stand for … in GC…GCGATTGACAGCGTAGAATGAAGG
Label false (0) if PBM binding z-score falls below 0.4; label true (1) in every other case.

Inquiry: // inclusive: PBM binding z-score at least 0.4? input: GGAACGAGGGCGAAGTTGATAGCATCTGTCGACG
Reply text: true (1)

Inquiry: // inclusive: PBM binding z-score at least 0.4? input: GATACAGGATCAAGGCCAGAGTACGCGTATTGAT
Reply text: false (0)

Inquiry: // inclusive: PBM binding z-score at least 0.4? input: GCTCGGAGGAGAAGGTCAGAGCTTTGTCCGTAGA
Reply text: false (0)

Inquiry: // inclusive: PBM binding z-score at least 0.4? input: ACTAGTTGGTCAGCTGTGGTCACACACAATTCGG
Reply text: false (0)

Inquiry: // inclusive: PBM binding z-score at least 0.4? input: TCTGCTAGGTCAACGATGGTCATCTAATCTGCTA
Reply text: true (1)

---

test system: PPARg:RXRa 270nM:90nM, anti-RXR (NR concentration 270 nM, RXRa partner concentration 90 nM); assay: PBM binding z-score (relative to random genomic background probes); higher = stronger binding; sequences stand for … in GC…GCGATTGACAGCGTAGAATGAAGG
Reported Endpoint: PBM binding z-score
I only need the number, thanks.

Examples with their reported PBM binding z-score follow.
{"columns": ["Chain", "Reported Endpoint", "Measured Value"],
 "data": [
  ["CGTCCAAGGTAAAAGGTCAGTGAAGAGATGACGG", "PBM binding z-score", 6.49],
  ["AGTCAAAGTACAGGACGAGGTAACGTAAAGCACG", "PBM binding z-score", 0.138],
  ["CCTGCTACGTCAATGGTCAGCTAAAGCAGCTCGC", "PBM binding z-score", -0.498],
  ["ATCTCCAGGTAAAGTTCAGTGAAAGATCGATAGA", "PBM binding z-score", 2.62],
  ["ATATGTAGGTTACATCCGCGTCATTCAGGCTATG", "PBM binding z-score", 3.92],
  ["CTCGAATGGTCGTGCTCAGGTGAGTATACCAAAC", "PBM binding z-score", -0.395],
  ["ATCTCTAGGTAAGACTCAGTTCATTGAAGAACGC", "PBM binding z-score", 0.381],
  ["CCTTACGGGTCACTGACAGGTTATAGCATTTGGA", "PBM binding z-score", 4.67]
]}

Inquiry: Return reported PBM binding z-score. Input sequence: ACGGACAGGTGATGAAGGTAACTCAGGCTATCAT
Reply text: 0.0307

Inquiry: Return reported PBM binding z-score. Input sequence: TCATATAGGTAAAAGGTGAAGGTCGGTGTGGTAA
Reply text: 8.43

Inquiry: Return reported PBM binding z-score. Input sequence: GGAACGCGGGCATTCGAGTTGATAGCATGGCGAT
Reply text: -0.711

Inquiry: Return reported PBM binding z-score. Input sequence: ATATGTAGGTTACACCCGGGTCATTCAGGCTATG
Reply text: 5.36

---

// reported PBM binding z-score per item
system: RARb:RXRa (NR concentration 270 nM, RXRa partner concentration 90 nM); experiment: PBM binding z-score (relative to random genomic background probes); higher = stronger binding; sequences stand for … in GC…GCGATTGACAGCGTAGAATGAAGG
I only need the number, thanks.

{"columns": ["Chain", "Study System", "PBM binding z-score"],
 "data": [
  ["ATATGTAGGTTAGATCCGGGTCATTCAGGCTATG", "RARb:RXRa (NR concentration 270 nM, RXRa partner concentration 90 nM)", 2.03],
  ["CGAACTAGGTCATCCAGGACAGTTAATACATTGA", "RARb:RXRa (NR concentration 270 nM, RXRa partner concentration 90 nM)", 3.72],
  ["CCGGCTGGGGCAAGGTTACCATAACGCACAGCCA", "RARb:RXRa (NR concentration 270 nM, RXRa partner concentration 90 nM)", 1.64]
]}

Inquiry: Return reported PBM binding z-score. Input sequence: GCTGCTAGGTCAGGTTGGACAGCTAACGGGTACG
Reply text: 3.39

Inquiry: Return reported PBM binding z-score. Input sequence: ATCGAAAGGTCGAAGGTGATTATACCCACCCGAA
Reply text: 3.5

Inquiry: Return reported PBM binding z-score. Input sequence: CCTAGTTGGTCAGGAGGTCTCACACCGGATATGA
Reply text: 0.838

Inquiry: Return reported PBM binding z-score. Input sequence: TCTTGTAGATCAGTAGAGGTTAAGAAAGTGCGCT
Reply text: 0.882

Inquiry: Return reported PBM binding z-score. Input sequence: TCTTGTAGATCAATAGAGGCTAAGAAAGTGCGCT
Reply text: 0.203

Inquiry: Return reported PBM binding z-score. Input sequence: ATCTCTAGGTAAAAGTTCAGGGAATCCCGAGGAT
Reply text: 2.62

Inquiry: Return reported PBM binding z-score. Input sequence: CCAAGTAGGTTATGGGGCATTCAGGCAACGGTGA
Reply text: 1.05

Inquiry: Return reported PBM binding z-score. Input sequence: CTTACTGGGCCAAAAAGGTCATTGATGCCGATAA
Reply text: 4.03

Inquiry: Return reported PBM binding z-score. Input sequence: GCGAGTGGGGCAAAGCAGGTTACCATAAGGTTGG
Reply text: 1

Inquiry: Return reported PBM binding z-score. Input sequence: AGAATGAGGTTCTACGTAGATCAGGGAAGAAAGT
Reply text: -0.407

Inquiry: Return reported PBM binding z-score. Input sequence: GGAACGAGGGCATTCGAGTAGATAGCATGGCGAT
Reply text: 1.56

Inquiry: Return reported PBM binding z-score. Input sequence: CGTAAAAGTTCAAGGTAACGTAACAGAAAGCAGC
Reply text: 4.99

Inquiry: Return reported PBM binding z-score. Input sequence: TGTCAAAGTTCAAAGGTAACGAAAGTATCCACAC
Reply text: 5.22
